B1: KLHL12 (parent)
chain: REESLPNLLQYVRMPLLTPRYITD

# Variants of: B1
# Assay Info: protein stability index of a GFP-peptide fusion (GPS, HEK-293T) (PSI 1-6); higher = more stable;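 further: lentivirally expressed fusions sorted by FACS into six bins by GFP to DsRed ratio, PSI derived from sequencing read proportions per bin multiplied by bin number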
# Assay Context: c terminus: a fixed tail appended
If the reported protein stability index equals or exceeds 3, assign met. If not, assign not met.

Problem: Given the entry N7C , answer whether its protein stability index meets or surpasses 3.
Result: not met

Problem: Given the entry L17I , answer whether its protein stability index meets or surpasses 3.
Result: not met

Problem: Given the entry I22T , answer whether its protein stability index meets or surpasses 3.
Result: met

Problem: Given the entry N7E , answer whether its protein stability index meets or surpasses 3.
Result: not met

Problem: Given the entry L9T , answer whether its protein stability index meets or surpasses 3.
Result: met

Problem: Given the entry I22P , answer whether its protein stability index meets or surpasses 3.
Result: met

Problem: Given the entry V12A , answer whether its protein stability index meets or surpasses 3.
Result: met

Problem: Given the entry N7G , answer whether its protein stability index meets or surpasses 3.
Result: not met
